Target: UniProt:P30291
Sequence (P30291 whole entry): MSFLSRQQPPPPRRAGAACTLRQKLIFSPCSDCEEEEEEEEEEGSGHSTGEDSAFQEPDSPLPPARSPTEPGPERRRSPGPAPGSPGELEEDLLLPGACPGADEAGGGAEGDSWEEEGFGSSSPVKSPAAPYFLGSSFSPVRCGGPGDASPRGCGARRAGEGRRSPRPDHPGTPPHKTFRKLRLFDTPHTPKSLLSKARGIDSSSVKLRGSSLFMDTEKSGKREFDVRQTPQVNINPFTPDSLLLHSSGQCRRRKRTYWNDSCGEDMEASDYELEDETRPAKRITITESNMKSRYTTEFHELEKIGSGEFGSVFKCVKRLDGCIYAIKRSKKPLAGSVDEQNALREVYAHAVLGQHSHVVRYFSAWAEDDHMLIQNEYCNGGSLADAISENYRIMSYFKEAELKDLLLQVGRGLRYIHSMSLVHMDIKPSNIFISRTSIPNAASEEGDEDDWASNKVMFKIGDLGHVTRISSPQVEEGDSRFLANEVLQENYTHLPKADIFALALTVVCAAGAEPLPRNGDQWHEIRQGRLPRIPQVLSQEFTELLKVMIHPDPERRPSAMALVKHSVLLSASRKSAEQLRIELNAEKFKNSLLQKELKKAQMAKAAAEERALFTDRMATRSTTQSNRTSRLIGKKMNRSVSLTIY
Assay: Wee1 time-resolved fluorescence equilibrium binding assay (displacement of Oregon Green-labeled ATP-competitive kinase probe)
Protocol: Wee1 kinase was assayed using a time-resolved fluorescence equilibrium binding assay monitoring displacement of a rapidly reversible Oregon Green-labeled ATP-competitive kinase probe (N-(2-(2-(2-(4-(4-(5-chloro-4-(2-(1-hydroxycyclobutyl)thiazol-5-yl)-1H-pyrrolo[2,3-b]pyridin-2-yl)phenyl)piperazin-1-yl)ethoxy)ethoxy)ethyl)-2′,7′-difluoro-3′,6′-dihydroxy-3-oxo-3H-spiro[isobenzofuran-1,9′-xanthene]-5-carboxamide) by competitive Wee1 inhibitors.
readout_name: pKi
Give only the number. pKi is defined as minus log10 of concentration in molar units.

Field: example entries. Status: answers known.
# compound, pKi
records = [
    ("Cc1nn(-c2c(F)cccc2Cl)c(=O)c2cnc(Nc3ccc4c(c3)CN(C)CC4(C)C)nc12 [Example 311]", 9.00),
    ("COC(=O)c1cccc(-c2nn(-c3c(Cl)cccc3Cl)c(=O)c3cnc(Nc4ccc(N5CCN(C)CC5)cc4)nc23)c1 [Example 188]", 9.00),
]

API: the following record is the query input.
## Task Which measured pKi value corresponds to CC(C)N1CCN(c2ccc(Nc3ncc4c(=O)n(-c5ccccc5Cl)nc(-c5ccccc5)c4n3)cc2)CC1 [Example 131] ?
## Result 9.30
